Molecular target: PfHT (Plasmodium falciparum, UniProt Q7KWJ5)
Sequence (Q7KWJ5 1-504): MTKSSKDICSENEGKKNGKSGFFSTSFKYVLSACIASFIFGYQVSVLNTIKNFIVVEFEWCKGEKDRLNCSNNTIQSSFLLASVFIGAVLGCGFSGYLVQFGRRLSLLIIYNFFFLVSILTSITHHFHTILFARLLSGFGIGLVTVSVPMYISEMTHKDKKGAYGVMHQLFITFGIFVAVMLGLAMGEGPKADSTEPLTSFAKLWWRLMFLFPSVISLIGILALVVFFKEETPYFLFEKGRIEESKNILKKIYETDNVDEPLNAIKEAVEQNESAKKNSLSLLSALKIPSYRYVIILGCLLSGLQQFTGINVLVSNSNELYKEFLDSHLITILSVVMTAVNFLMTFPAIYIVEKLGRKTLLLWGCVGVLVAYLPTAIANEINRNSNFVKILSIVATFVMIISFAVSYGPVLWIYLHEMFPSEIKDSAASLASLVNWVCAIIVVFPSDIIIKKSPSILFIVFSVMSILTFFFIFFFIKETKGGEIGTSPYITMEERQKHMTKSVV
Assay: 2-DG uptake by HEK293 cells overexpressing PfHT
Assay type: cell-based
Design: expressed in transfected cells; host or cells: HEK293 (HEK293-FLIP, native hGLUT1 knocked down by shRNA)
Conditions: HEK293, 4 min, read-out: 2-DG uptake (percent uptake relative to vehicle), AVE, PfHT; 0.625 µM compound
Listing of entries alongside the reported remaining activity at 0.625 µM.
Kindly answer with a numeric value in %, unit omitted.

// query Item COc1cc(/C=N/NC(=O)c2cc(-c3ccccc3)sc2N)cc(OC)c1OC has what recorded remaining activity at 0.625 µM?
// result 104

// query Consider next the molecule COc1cc(/C=C2\COC/C(=C\c3cc(OC)c(OC)c(OC)c3)C2=O)cc(OC)c1OC in the same way.
// result 89.8

// query Consider next the molecule COc1c(Br)cc([N+](=O)[O-])c(OC)c1C(=O)NC(=O)Nc1c(C)cccc1Cl in the same way.
// result 75.7

// query Consider next the molecule Cc1ccc(S(=O)(=O)CCNC(=O)c2c(-c3c(Cl)cccc3Cl)noc2C)cc1 in the same way.
// result 85.3

* * *

molecular target: FTPfHT (Plasmodium falciparum); experiment: [3H]-D-glucose specific uptake into FTPfHT-containing liposomes; format: biochemical; conditions: S3 Fig; read-out: IC50 for specific D-glucose uptake into FTPfHT liposomes
Measurement kind: pIC50
Note: pIC50 values are expressed as the negative base-10 logarithm of concentration in M.

// query Item Cc1ccc(S(=O)(=O)CCNC(=O)c2c(-c3c(Cl)cccc3Cl)noc2C)cc1 has what recorded pIC50?
// result 4.88

* * *

biological target: hGLUT3 (Homo sapiens); construct: expressed in transfected cells; host or cells: HEK293 (HEK293-FLIP, native hGLUT1 knocked down by shRNA); assay: 2-DG uptake by HEK293 cells overexpressing hGLUT3; type: cell-based; conditions: IC50 for inhibition of 2-DG uptake, individual experiments, GLUT3; Expt 1-3
Measurement kind: IC50

// query Item Cc1ccc(S(=O)(=O)CCNC(=O)c2c(-c3c(Cl)cccc3Cl)noc2C)cc1 has what recorded IC50?
// result > 225 µM

* * *

Molecular target: hGLUT3 (Homo sapiens)
Construct: expressed in transfected cells; host or cells: HEK293 (HEK293-FLIP, native hGLUT1 knocked down by shRNA)
Sequence (P11169 1-496): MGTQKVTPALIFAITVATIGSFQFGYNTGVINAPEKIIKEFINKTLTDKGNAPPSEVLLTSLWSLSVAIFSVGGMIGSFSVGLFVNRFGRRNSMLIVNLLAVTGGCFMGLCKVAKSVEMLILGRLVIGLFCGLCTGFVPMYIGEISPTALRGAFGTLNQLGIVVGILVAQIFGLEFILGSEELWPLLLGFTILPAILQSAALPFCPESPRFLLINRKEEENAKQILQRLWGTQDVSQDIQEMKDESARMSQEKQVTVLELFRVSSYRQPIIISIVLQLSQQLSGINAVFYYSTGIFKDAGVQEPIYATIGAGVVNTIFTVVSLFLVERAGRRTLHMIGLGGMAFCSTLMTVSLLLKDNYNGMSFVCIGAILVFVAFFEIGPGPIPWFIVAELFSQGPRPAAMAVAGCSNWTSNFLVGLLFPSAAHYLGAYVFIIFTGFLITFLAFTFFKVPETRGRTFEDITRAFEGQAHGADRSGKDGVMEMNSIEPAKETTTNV
Assay: 2-DG uptake by HEK293 cells overexpressing hGLUT3
Type: cell-based
Settings: IC50 for inhibition of 2-DG uptake, GLUT3 cell line; mean/reported value
pIC50: −log10 of the molar value.
Measurement kind: pIC50

1. COc1c(Br)cc([N+](=O)[O-])c(OC)c1C(=O)NC(=O)Nc1c(C)cccc1Cl [WU-2]; < 4.30

// query Item Cc1ccc(S(=O)(=O)CCNC(=O)c2c(-c3c(Cl)cccc3Cl)noc2C)cc1 [WU-1] has what recorded pIC50?
// result < 4.00

* * *

target: hGLUT8 (Homo sapiens, UniProt Q9NY64, E7R/E8R); construct: expressed in transfected cells; host or cells: HEK293 (HEK293-FLIP, native hGLUT1 knocked down); assay: 2-DG uptake by HEK293 cells overexpressing hGLUT8; type: cell-based; settings: GLUT8 cell line; read-out: IC50, 2-DG uptake
Sequence (Q9NY64 whole entry E7R/E8R): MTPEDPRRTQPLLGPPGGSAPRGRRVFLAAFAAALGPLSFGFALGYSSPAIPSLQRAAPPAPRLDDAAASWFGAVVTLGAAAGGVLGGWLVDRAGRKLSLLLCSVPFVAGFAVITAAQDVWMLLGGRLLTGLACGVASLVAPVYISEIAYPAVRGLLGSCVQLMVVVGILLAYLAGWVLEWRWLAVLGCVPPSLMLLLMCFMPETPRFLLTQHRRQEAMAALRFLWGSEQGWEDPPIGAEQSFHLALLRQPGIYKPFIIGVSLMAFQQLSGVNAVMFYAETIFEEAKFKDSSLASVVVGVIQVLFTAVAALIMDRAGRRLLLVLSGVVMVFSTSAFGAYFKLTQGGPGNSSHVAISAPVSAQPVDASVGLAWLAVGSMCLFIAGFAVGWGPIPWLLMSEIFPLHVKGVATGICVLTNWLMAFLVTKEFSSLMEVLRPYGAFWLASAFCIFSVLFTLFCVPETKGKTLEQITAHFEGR
Measurement kind: pIC50
Note: pIC50 values are expressed as the negative base-10 logarithm of concentration in M.

// query Item Cc1ccc(S(=O)(=O)CCNC(=O)c2c(-c3c(Cl)cccc3Cl)noc2C)cc1 [WU-1] has what recorded pIC50?
// result 4.60

* * *

tested on: P. falciparum strain 3D7 freed parasites; experiment: 2-DG uptake by isolated freed P. falciparum parasites; type: cell-based, Plasmodium falciparum; conditions: Plasmodium falciparum, 3D7, isolated P. falciparum trophozoites; mean; read-out: IC50 for 2-DG uptake by freed parasites
Measurement kind: IC50
The answer consists of two parts: a number and, after it, its unit.

// query Item Cc1ccc(S(=O)(=O)CCNC(=O)c2c(-c3c(Cl)cccc3Cl)noc2C)cc1 has what recorded IC50?
// result 6.1 µM

* * *

Biological target: PfHT (Plasmodium falciparum, UniProt Q7KWJ5)
Sequence (Q7KWJ5 1-504): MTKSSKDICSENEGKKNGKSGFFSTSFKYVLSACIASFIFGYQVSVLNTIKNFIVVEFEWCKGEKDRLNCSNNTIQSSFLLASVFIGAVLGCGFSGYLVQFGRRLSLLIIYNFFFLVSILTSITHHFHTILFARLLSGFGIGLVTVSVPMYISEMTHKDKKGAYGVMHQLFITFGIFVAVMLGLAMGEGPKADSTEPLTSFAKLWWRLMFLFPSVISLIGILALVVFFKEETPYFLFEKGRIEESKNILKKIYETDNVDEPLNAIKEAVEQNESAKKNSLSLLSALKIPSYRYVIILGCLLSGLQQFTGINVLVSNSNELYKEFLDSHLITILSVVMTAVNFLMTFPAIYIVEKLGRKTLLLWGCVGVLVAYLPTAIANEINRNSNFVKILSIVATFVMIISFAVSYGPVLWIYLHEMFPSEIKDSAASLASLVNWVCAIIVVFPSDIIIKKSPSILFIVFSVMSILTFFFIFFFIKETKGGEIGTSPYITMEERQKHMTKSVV
Assay: 2-DG uptake by HEK293 cells overexpressing PfHT
Format: cell-based
Set-up: expressed in transfected cells; host or cells: HEK293 (HEK293-FLIP, native hGLUT1 knocked down by shRNA)
Details: HEK293, 4 min, read-out: 2-DG uptake (percent uptake relative to vehicle), AVE, PfHT; 1.25 µM compound
Measurement kind: remaining activity at 1.25 µM (%)
Kindly answer with a numeric value in %, unit omitted.

1) COc1c(Br)cc([N+](=O)[O-])c(OC)c1C(=O)NC(=O)Nc1c(C)cccc1Cl [WU-2]; 68.5
2) Cc1ccc(S(=O)(=O)CCNC(=O)c2c(-c3c(Cl)cccc3Cl)noc2C)cc1 [WU-1]; 80.1
3) COc1cc(/C=N/NC(=O)c2cc(-c3ccccc3)sc2N)cc(OC)c1OC [WU-3]; 103

Next up:
// query Item COc1cc(/C=C2\COC/C(=C\c3cc(OC)c(OC)c(OC)c3)C2=O)cc(OC)c1OC [WU-5] has what recorded remaining activity at 1.25 µM?
// result 72.2

* * *

molecular target: UniProtKB Q7KWJ5; assay: 2-DG uptake by HEK293 cells overexpressing PfHT; format: cell-based; design: expressed in transfected cells; host or cells: HEK293 (HEK293-FLIP, native hGLUT1 knocked down by shRNA); settings: AVE IC50 (µM), PfHT; 2-DG Uptake; average of Expt 1-3
Measurement kind: IC50 (µM)
Kindly answer with a numeric value in µM, unit omitted.

// query Item C=C1[C@@H](C)[C@H]2[C@H](Cc3ccccc3)NC(=O)[C@]23OC(=O)/C=C/[C@H](O)CCC[C@@H](C)C/C=C/[C@H]3[C@@H]1O [CB, cytochalasin B] has what recorded IC50?
// result 10.9
